B1: library; a variant is named by its letters at N, in order (parent)
chain: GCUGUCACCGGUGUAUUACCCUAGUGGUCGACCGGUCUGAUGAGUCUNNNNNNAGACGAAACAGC

- Variants of: B1
- assay comment: FACS-Seq fitted mean relative fluorescence mCherry/BFP without ligand (log10 relative fluorescence); ligand: hypoxanthine (xanthine aptamer); higher = higher reporter protein expression
- assay context: HEK293T, ligand present: no
# if value of FACS-Seq fitted mean (log10) reaches 0.1, tag Yes; if it stays below, tag No

INSERT INTO results (mutation_annotation, label) VALUES
  ('ACUCUG', 'Yes'),
  ('GUAUGU', 'Yes'),
  ('CUAUUG', 'Yes'),
  ('CGGUAU', 'No'),
  ('UGUGGA', 'No'),
  ('AUGCUA', 'Yes'),
  ('AGUUGG', 'No'),
  ('CCCACA', 'Yes'),
  ('ACGAGG', 'No'),
  ('AGGAUA', 'No'),
  ('AUCGAC', 'Yes'),
  ('UGAGCU', 'Yes'),
  ('CAAAUA', 'Yes'),
  ('GCGGGU', 'Yes'),
  ('UGACAC', 'Yes'),
  ('AAGAAU', 'Yes'),
  ('UAGGAU', 'Yes'),
  ('CCUUGC', 'Yes'),
  ('CGUGGA', 'Yes'),
  ('GAUGGG', 'No'),
  ('GAUGCC', 'Yes'),
  ('CUGAAA', 'Yes'),
  ('UCCCAG', 'Yes'),
  ('UUAAUA', 'Yes'),
  ('UAAGUG', 'No'),
  ('CGUGCA', 'Yes'),
  ('GUGGGU', 'Yes');
